Here the recorded pKd is given for each entry.
- system tested: T1, human VEGF (hVEGF) (human, UniProt P15692 181-395)
- T1 construct: also called VEGF-A
- T1 sequence: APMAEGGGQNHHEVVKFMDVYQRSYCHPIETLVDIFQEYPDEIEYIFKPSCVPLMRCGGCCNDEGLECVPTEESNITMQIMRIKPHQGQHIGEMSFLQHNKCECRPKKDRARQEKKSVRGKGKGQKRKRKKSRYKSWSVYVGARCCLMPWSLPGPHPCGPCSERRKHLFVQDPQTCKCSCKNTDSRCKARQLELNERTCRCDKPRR
- test name: SPR single-cycle
pKd: −log10 of the molar value.
readout type: pKd

- G6.31 LC-F83A (Fab, V domains shown, Fab) VH: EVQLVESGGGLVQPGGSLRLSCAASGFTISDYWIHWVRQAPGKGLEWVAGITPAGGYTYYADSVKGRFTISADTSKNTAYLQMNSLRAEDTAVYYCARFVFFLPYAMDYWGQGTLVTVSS VL: DIQMTQSPSSLSASVGDRVTITCRASQDVSTAVAWYQQKPGKAPKLLIYSASFLYSGVPSRFSGSGSGTDFTLTISSLQPEDAATYYCQQGYGNPFTFGQGTKVEIK: 9.30
- G6.31 HC-A60M (Fab, name in Kabat numbering, V domains shown, Fab) VH: EVQLVESGGGLVQPGGSLRLSCAASGFTISDYWIHWVRQAPGKGLEWVAGITPAGGYTYYMDSVKGRFTISADTSKNTAYLQMNSLRAEDTAVYYCARFVFFLPYAMDYWGQGTLVTVSS VL: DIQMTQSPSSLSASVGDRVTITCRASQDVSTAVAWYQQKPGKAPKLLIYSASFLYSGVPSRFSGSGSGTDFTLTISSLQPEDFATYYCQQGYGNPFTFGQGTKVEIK: 8.72
- G6.31 LC-Q89N (Fab, V domains shown, Fab) VH: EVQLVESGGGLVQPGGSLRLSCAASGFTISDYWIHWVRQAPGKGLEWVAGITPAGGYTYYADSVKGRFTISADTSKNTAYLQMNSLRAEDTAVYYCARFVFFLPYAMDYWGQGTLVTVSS VL: DIQMTQSPSSLSASVGDRVTITCRASQDVSTAVAWYQQKPGKAPKLLIYSASFLYSGVPSRFSGSGSGTDFTLTISSLQPEDFATYYCNQGYGNPFTFGQGTKVEIK: 9.36

These measurements were taken from patent US20210115124A1.
